Please respond with reported inhibition for every item in the list.
Target: Tyrosine-protein kinase Mer (Homo sapiens) (UniProt Q12866);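 further: values are mean inhibition of human MER kinase, from the GSK PKIS profiling panel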
Sequence (whole entry): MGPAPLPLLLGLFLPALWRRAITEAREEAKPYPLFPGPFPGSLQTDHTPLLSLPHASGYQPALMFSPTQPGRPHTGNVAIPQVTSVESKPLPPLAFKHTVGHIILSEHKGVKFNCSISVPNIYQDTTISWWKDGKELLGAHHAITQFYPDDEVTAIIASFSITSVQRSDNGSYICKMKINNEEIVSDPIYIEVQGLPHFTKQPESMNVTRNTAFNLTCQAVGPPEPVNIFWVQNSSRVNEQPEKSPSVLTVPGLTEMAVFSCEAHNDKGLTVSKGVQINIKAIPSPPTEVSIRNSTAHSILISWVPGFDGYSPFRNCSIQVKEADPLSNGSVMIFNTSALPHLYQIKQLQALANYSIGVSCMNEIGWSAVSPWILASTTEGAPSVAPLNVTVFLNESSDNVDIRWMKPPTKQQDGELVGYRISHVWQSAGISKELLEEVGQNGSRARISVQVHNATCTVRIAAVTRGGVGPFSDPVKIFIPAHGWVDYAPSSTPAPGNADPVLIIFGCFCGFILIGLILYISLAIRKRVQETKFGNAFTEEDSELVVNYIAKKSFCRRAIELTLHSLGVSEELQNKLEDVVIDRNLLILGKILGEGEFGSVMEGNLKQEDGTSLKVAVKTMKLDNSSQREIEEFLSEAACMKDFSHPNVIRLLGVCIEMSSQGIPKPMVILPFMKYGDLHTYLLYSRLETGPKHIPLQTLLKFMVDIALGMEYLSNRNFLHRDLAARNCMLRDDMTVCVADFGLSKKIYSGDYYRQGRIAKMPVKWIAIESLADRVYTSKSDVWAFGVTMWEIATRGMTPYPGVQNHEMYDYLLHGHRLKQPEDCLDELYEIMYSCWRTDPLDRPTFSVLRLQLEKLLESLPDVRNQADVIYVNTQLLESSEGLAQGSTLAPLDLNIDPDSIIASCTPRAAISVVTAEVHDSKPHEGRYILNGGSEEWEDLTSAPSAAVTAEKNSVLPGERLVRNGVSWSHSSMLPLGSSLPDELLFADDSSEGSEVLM
Settings: at 1 µM
Numeric answer only, unit % assumed.

-- ask Would you mind telling me what inhibition value was observed for "Cc1cc(O)cc(C)c1/C=C/c1cncc(-c2nn[nH]n2)c1" ?
-- reply 5.61

-- ask Would you mind telling me what inhibition value was observed for "O=C1NC(=O)C(c2ccccc2Cl)=C1Nc1cccc(O)c1" ?
-- reply 4.66

-- ask Would you mind telling me what inhibition value was observed for "CS(=O)(=O)CCNCc1nc(-c2ccc3ncnc(Nc4ccc(F)c(Cl)c4)c3c2)cs1" ?
-- reply 4.95

-- ask Would you mind telling me what inhibition value was observed for "NC(=O)c1cccc(Nc2nccc(Nc3cccc4[nH]ncc34)n2)c1" ?
-- reply 8.27

-- ask Would you mind telling me what inhibition value was observed for "COc1ccc(-c2ccncc2)cc1C(N)=O" ?
-- reply 5.63

-- ask Would you mind telling me what inhibition value was observed for "COc1ccccc1Nc1ncc(-c2ccccc2)o1" ?
-- reply 1.66

----------
Target: Serine/threonine-protein kinase D2 (Homo sapiens) (UniProt Q9BZL6);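 further: mean value of PRKD2 inhibition, from the GSK PKIS screening panel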
Sequence (Q9BZL6 whole entry): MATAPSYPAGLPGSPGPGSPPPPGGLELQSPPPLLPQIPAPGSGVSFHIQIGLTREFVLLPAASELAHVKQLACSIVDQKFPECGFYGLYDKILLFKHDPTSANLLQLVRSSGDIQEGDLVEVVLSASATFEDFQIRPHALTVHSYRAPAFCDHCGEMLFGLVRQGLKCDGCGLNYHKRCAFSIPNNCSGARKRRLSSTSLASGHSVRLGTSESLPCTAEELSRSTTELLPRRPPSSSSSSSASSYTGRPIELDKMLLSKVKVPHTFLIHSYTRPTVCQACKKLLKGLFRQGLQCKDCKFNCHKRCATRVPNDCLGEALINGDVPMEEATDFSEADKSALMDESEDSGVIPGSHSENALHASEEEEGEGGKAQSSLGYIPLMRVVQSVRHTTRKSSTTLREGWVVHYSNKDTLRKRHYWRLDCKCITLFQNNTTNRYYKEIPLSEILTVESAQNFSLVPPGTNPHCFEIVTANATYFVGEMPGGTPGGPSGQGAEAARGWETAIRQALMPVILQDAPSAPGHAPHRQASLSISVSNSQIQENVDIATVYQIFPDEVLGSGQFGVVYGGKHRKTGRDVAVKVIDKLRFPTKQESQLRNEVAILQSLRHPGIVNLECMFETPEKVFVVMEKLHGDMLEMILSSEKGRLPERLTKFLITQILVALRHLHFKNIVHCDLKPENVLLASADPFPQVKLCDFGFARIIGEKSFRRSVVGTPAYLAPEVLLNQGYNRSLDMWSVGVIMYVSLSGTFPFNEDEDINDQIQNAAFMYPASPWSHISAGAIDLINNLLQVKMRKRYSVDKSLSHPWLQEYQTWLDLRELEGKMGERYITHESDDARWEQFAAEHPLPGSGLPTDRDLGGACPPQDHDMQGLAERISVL
Conditions: at 1 µM
Result Type: inhibition (%)
Numeric answer only, unit % assumed.

-- ask Would you mind telling me what inhibition value was observed for "COc1ccc(-c2nn3ncccc3c2-c2ccnc(Nc3ccc(Cl)c(C(F)(F)F)c3)n2)cc1" ?
-- reply 4.34

-- ask Would you mind telling me what inhibition value was observed for "Cc1nnc(-c2ccc(C)c(-c3ccc(C(=O)Nc4cccc(C#N)c4)cc3)c2)o1" ?
-- reply 3.13

-- ask Would you mind telling me what inhibition value was observed for CC1=C(C(=O)Nc2ccc3[nH]ncc3c2)C(c2ccc(Cl)c(Cl)c2)CC(=O)N1 (stereo not given) ?
-- reply 5.98

-- ask Would you mind telling me what inhibition value was observed for "COc1cc2ncn(-c3cc(OCc4ccccc4Cl)c(C(N)=O)s3)c2cc1OC" ?
-- reply 1.64

-- ask Would you mind telling me what inhibition value was observed for "Cc1ccc(NC(=O)c2ccnc(N3CCCC3)c2)cc1-c1ccc(C(=O)NCC2CC2)cc1" ?
-- reply 9.48

-- ask Would you mind telling me what inhibition value was observed for "N#Cc1c(NC(=O)c2cccc3ccccc23)sc2c1CCCC2" ?
-- reply 2.96

-- ask Would you mind telling me what inhibition value was observed for "COc1cc(C=NNc2ncnc3c2cnn3-c2ccccc2)ccc1O" ?
-- reply 2.86

-- ask Would you mind telling me what inhibition value was observed for "O=C1NC(=O)C(c2ccc(Cl)cc2)=C1Nc1ccc(Cl)c(C(=O)O)c1" ?
-- reply -0.34

-- ask Would you mind telling me what inhibition value was observed for "COC(=O)Nc1nc2cc(Oc3cccc(NC(=O)Nc4cc(C(F)(F)F)ccc4F)c3)ccc2[nH]1" ?
-- reply 1.8

-- ask Would you mind telling me what inhibition value was observed for "Cc1ccc(C(=O)NC2CCCCC2)cc1-c1ccc(C(=O)NCC2CC2)cc1" ?
-- reply 2.9

-- ask Would you mind telling me what inhibition value was observed for "COc1ccc(COc2ccc(Cc3cnc(N)nc3N)cc2OC)cc1" ?
-- reply 4.2

-- ask Would you mind telling me what inhibition value was observed for "CCn1c(-c2nonc2N)nc2cncc(C(=O)N3CCNCC3)c21" ?
-- reply 4.19

-- ask Would you mind telling me what inhibition value was observed for "O=C1NC(=O)C(N2CCc3ccccc32)=C1c1ccc(Cl)cc1" ?
-- reply 4.56

-- ask Would you mind telling me what inhibition value was observed for "CC(=O)Nc1cccc(C#Cc2cncnc2Nc2ccc(OCc3cccc(F)c3)c(Cl)c2)n1" ?
-- reply -0.67

-- ask Would you mind telling me what inhibition value was observed for "CCn1c(-c2nonc2N)nc2c(C#CC(C)(C)O)nc(CN3CCCC3)cc21" ?
-- reply 6.86

-- ask Would you mind telling me what inhibition value was observed for "CCn1c(-c2nonc2N)nc2c(N3CCCC3)nccc21" ?
-- reply -0.31

-- ask Would you mind telling me what inhibition value was observed for "NCc1ccc(-c2nc(-c3ccc(Cl)c(O)c3)c(-c3ccncc3)[nH]2)cc1" ?
-- reply 4.23

-- ask Would you mind telling me what inhibition value was observed for "COc1cc2c(cc1Nc1nc(N3CCc4ccccc43)c3cc[nH]c3n1)N(C(=O)CN(C)C)CC2" ?
-- reply 3.6

-- ask Would you mind telling me what inhibition value was observed for "COc1ccccc1Nc1ncc(-c2ccccc2)o1" ?
-- reply 2.18

-- ask Would you mind telling me what inhibition value was observed for "NS(=O)(=O)c1cccc(-c2ccc3c(NC(=O)C4CC4)n[nH]c3c2)c1" ?
-- reply -0.76

-- ask Would you mind telling me what inhibition value was observed for "NC(=O)c1cccc(Nc2nccc(Nc3cccc4[nH]ncc34)n2)c1" ?
-- reply 5

-- ask Would you mind telling me what inhibition value was observed for "COC(=O)Nc1nc2cc(Oc3ccc(NC(=O)Nc4cccc(C(=O)O)c4)cc3)ccc2[nH]1" ?
-- reply -1.55

-- ask Would you mind telling me what inhibition value was observed for "CS(=O)(=O)CCNCc1ccc(-c2ccc3ncnc(Nc4ccc(OCc5cccc(F)c5)c(C(F)(F)F)c4)c3c2)o1" ?
-- reply 5.13

-- ask Would you mind telling me what inhibition value was observed for "c1cnn2ncc(-c3ccnc(Nc4ccc5c(c4)OCCO5)n3)c2c1" ?
-- reply 38.2

-- ask Would you mind telling me what inhibition value was observed for "CCCN1CCC=C(c2ccc(Nc3nc(Nc4ccccc4C(N)=O)c4cc[nH]c4n3)c(C)c2)C1" ?
-- reply 68.5

-- ask Would you mind telling me what inhibition value was observed for "O=C1NC(=O)C(c2ccccc2Cl)=C1Nc1cccc(O)c1" ?
-- reply 2.71

-- ask Would you mind telling me what inhibition value was observed for "Nc1ncnc2occ(-c3ccc(NC(=O)Nc4cccc(C(F)(F)F)c4)cc3)c12" ?
-- reply 4.09

-- ask Would you mind telling me what inhibition value was observed for "CS(=O)(=O)Nc1ccc(N/C=C2\C(=O)Nc3ccccc32)cc1" ?
-- reply 2.63

-- ask Would you mind telling me what inhibition value was observed for "CN1CCC(C(=O)Nc2n[nH]c3nnc(-c4ccccc4)cc23)CC1" ?
-- reply 6.42

-- ask Would you mind telling me what inhibition value was observed for "Nc1nc(-c2ccc3c(c2)C(=Cc2cc(Br)c(O)c(Br)c2)C(=O)N3)cs1" ?
-- reply -1.39

-- ask Would you mind telling me what inhibition value was observed for "O=C1NC(=O)C(c2cccc(Cl)c2)=C1Nc1ccc(O)c(Cl)c1" ?
-- reply 3.16

-- ask Would you mind telling me what inhibition value was observed for "NS(=O)(=O)c1ccc(N/N=C2\C(=O)Nc3ccc(C(=O)NCCc4c[nH]cn4)cc32)cc1" ?
-- reply 32.9

-- ask Would you mind telling me what inhibition value was observed for "CCN1CCC(CC(=O)Nc2n[nH]c3nc(-c4cccs4)c(Br)cc23)CC1" ?
-- reply -1.32

-- ask Would you mind telling me what inhibition value was observed for "CCn1c(-c2nonc2N)nc2cncc(C(=O)N3CC[C@H](N)C3)c21" ?
-- reply 8.24

-- ask Would you mind telling me what inhibition value was observed for "Fc1cccc(COc2ccc(Nc3ncnc4sc(-c5cccs5)cc34)cc2Cl)c1" ?
-- reply -1.2

-- ask Would you mind telling me what inhibition value was observed for "COc1cc2ncn(-c3cc(OCc4ccccc4C(F)(F)F)c(C(N)=O)s3)c2cc1OC" ?
-- reply -1.87

-- ask Would you mind telling me what inhibition value was observed for "Fc1cccc(COc2ccc(Nc3ncnc4cc(-c5ccc[nH]5)sc34)cc2Cl)c1" ?
-- reply -2.9

-- ask Would you mind telling me what inhibition value was observed for "O=C(Nc1n[nH]c2nc(-c3ccco3)c(Br)cc12)C1CC1" ?
-- reply 5.03

-- ask Would you mind telling me what inhibition value was observed for "CCn1c(-c2nonc2N)nc2cnc(Oc3cccc(NC(=O)c4ccc(OCCN5CCOCC5)cc4)c3)cc21" ?
-- reply 4.52

-- ask Would you mind telling me what inhibition value was observed for "CCn1c(-c2nonc2N)nc2c(C#CC(C)(C)O)nc(OC[C@@H](N)c3ccccc3)cc21" ?
-- reply 8.54
